- Setup Conditions: read-out: usual plasma levels, plateau (molar); 100 mg/m^2/day
Measured Endpoint: concentration

Request: Please give measured concentration of the following entry: NC(=O)c1nnn(Cc2cc(Cl)c(C(=O)c3ccc(Cl)cc3)c(Cl)c2)c1N
Response: 5 to 10 µM

---

- Tested on: A2780-CP70 cells (cisplatin-resistant)
- Experimental Protocol: Colony growth inhibition, 24 hr exposure
- Assay type: cell-based
- Setup Conditions: Homo sapiens, colonies counted after 5 days
Measured Endpoint: pIC50
Numbers only, as −log10 of the molar value.

Request: Please give measured pIC50 of the following entry: NC(=O)c1nnn(Cc2cc(Cl)c(C(=O)c3ccc(Cl)cc3)c(Cl)c2)c1N [Compound 1]
Response: 5.02
